B1: HDV Ribozyme (parent)
chain: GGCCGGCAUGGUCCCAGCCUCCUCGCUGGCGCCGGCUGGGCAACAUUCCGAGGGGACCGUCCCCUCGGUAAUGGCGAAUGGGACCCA

# Variants of: B1
# Assay Details: self-cleavage, relative activity (ratio to wild type); higher = more cleavage; co-transcriptional
Experimental Endpoint: self-cleavage
Reply with the value as a number alone.

Please review the entries below; each comes with its answer.
U37G C63A = 0.123
U9G U37G = 0.111
G68A A83C = 0.519
G17U C64G = 0.495

Task: Give the measured self-cleavage of G28C A51C .
Output: 0

Task: Give the measured self-cleavage of C22U C30A .
Output: 0.117

Task: Give the measured self-cleavage of G34A A83G .
Output: 0.0817

Task: Give the measured self-cleavage of C26A G55U .
Output: 1.17

Task: Give the measured self-cleavage of G1U G82C .
Output: 0.47
